molecular target: T1, HLA-A*02:01 (peptide-receptive MHC class I monomer after UV cleavage of the UV-sensitive ligand) (human); assay: UV ligand-exchange ELISA; exchange yield grade (+ >=10%, ++ >=20%, +++ >=50%, ++++ >=75%)
T1 construct: MHC monomers loaded by UV-ligand exchange and captured on streptavidin plates
REPORTED_ENDPOINT: peptide exchange yield

Reference set, count: 4
HLTEDTPKV [HLTEDTPKV (SEQ ID NO: 286)] : 50 to 75%
IIIEDLLEA [IIIEDLLEA (SEQ ID NO: 15)] : ≥ 75%
AMKEEKEQL [AMKEEKEQL (SEQ ID NO: 79)] : 20 to 50%
RLIRTIAAI [RLIRTIAAI (SEQ ID NO: 100)] : 50 to 75%

Entry under review: GLMDNEIKV [GLMDNEIKV (SEQ ID NO: 263)] . Reported peptide exchange yield?
50 to 75%

Entry VLDGMIYAI [VLDGMIYAI (SEQ ID NO: 118)] please
50 to 75%

What do we get for SLAELDEKISA [SLAELDEKISA (SEQ ID NO: 302)] ?
50 to 75%

And YLHRQVAAV [YLHRQVAAV (SEQ ID NO: 311)] ?
50 to 75%

Repeat with HLDEVFLEL [HLDEVFLEL (SEQ ID NO: 90)]
50 to 75%

Next entry: TLQTVPLTTV [TLQTVPLTTV (SEQ ID NO: 281)]
≥ 75%

Let us now turn to LLNFSPGNL [LLNFSPGNL (SEQ ID NO: 97)]
10 to 20%

Then FLVEVSNDV [FLVEVSNDV (SEQ ID NO: 64)] ?
≥ 75%

And the next one, VLLEDVDAAFL [VLLEDVDAAFL (SEQ ID NO: 52)] ?
≥ 75%
